# IC50 annotations
Target: Transient receptor potential cation channel subfamily A member 1 (Homo sapiens, UniProt O75762)
Sequence (O75762 whole entry): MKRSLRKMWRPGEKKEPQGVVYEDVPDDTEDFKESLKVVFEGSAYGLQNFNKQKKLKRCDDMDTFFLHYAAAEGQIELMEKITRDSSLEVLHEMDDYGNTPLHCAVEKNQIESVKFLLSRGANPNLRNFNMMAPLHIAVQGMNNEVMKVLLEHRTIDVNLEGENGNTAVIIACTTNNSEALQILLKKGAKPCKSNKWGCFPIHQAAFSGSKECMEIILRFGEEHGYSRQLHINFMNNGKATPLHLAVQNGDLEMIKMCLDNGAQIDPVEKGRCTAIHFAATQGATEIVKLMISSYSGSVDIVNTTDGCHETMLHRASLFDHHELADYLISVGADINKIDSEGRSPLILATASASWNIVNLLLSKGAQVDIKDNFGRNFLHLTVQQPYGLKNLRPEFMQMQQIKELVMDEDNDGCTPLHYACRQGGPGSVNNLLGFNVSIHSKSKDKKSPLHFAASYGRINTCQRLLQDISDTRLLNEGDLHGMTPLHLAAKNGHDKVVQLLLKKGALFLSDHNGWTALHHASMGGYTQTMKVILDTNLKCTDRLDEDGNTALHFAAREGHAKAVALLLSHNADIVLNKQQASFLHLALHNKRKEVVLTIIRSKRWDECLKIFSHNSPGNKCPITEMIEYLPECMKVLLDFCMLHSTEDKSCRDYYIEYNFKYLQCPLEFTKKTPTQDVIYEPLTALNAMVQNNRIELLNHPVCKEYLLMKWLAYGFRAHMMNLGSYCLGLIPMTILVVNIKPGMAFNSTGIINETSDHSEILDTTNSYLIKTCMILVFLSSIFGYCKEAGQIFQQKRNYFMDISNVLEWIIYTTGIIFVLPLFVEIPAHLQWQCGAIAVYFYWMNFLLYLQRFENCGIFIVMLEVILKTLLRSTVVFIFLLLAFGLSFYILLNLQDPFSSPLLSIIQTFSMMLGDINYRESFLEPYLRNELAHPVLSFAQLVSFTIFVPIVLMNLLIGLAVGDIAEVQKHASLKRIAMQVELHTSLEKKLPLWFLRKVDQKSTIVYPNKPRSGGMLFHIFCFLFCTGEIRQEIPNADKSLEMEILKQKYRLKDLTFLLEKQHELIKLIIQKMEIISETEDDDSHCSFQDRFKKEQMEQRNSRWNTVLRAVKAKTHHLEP
Assay: Antagonist activity at human TRPA1 channel expressed in CHO cells assessed as inhibition of cinnamaldehyde-induced intracellular calcium influx
Format: functional, cell-based

IC50 lookup needed for CCC(=N\O)/C(C)=C/c1cncc2ccccc12 , thanks.
> 100 µM

IC50 lookup needed for CC(=C\c1ccc(Cl)cc1)/C(C)=N/O [AP18 5] , thanks.
3.1 µM

IC50 lookup needed for CCC(=N\O)/C(C)=C/c1cnc2ccccc2c1 , thanks.
> 100 µM

---

Target: UniProtKB Q8NET8
Sequence (Q8NET8 whole entry): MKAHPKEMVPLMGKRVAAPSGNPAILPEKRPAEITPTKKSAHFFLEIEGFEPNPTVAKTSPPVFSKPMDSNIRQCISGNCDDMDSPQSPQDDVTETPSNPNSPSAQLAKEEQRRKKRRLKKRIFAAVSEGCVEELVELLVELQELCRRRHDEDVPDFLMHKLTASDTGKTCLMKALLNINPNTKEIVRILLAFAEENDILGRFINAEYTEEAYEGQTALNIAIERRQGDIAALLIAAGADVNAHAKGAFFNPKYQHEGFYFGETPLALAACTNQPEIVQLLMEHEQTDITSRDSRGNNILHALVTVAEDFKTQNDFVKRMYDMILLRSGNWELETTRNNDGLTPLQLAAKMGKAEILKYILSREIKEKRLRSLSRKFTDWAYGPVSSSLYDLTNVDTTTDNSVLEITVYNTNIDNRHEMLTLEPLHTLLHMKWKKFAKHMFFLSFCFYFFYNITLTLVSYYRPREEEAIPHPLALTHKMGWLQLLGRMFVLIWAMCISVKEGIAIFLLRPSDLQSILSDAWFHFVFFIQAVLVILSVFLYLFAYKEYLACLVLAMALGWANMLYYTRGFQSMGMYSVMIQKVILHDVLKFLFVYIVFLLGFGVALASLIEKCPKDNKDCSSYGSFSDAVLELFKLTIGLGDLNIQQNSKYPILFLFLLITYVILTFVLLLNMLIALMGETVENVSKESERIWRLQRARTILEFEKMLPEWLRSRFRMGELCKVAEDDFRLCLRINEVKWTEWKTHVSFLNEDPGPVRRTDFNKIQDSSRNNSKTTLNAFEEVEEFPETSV
Assay: Antagonist activity at human TRPV3 channel
Reported Metric: IC50

Short answer please: IC50, UniProtKB Q8NET8, entry CC(C)c1ccc(NC(=O)Cn2cnc3c2c(=O)n(C)c(=O)n3C)cc1
> 10 µM
